assay details: inhibition of 3D7 malaria parasite growth – strain 3D7 (AID 2306);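 also: 0% = DMSO wells and 100% = chloroquine plus artemisinin control wells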
recorded conditions: P. falciparum 3D7 erythrocytic growth, LDH absorbance, 72 h; at 2 µM; active compounds read high
attribute measured: growth inhibition (%)

> print(dat)
                                    compound  value.measured
 1            Cc1ccc2nc(C)cc(Nc3ccccc3O)c2c1              96
 2  CO/N=C(\C)c1ccc2c(c1)CCN(CCC1CCC(NC(=O)/C=C/c3ccc(F)cc3)CC1)CC2 (stereo not drawn)              95
 3  O=C(/C=C/c1ccc(Cl)c(Cl)c1)NCCCCCN1CCC(C(=O)Nc2cccc(Cl)c2)CC1             100
 4  O=C(NC1CCC(N2CCN(c3cccc4[nH]ccc34)CC2)CC1)c1cc2cccnc2[nH]1 (stereo not drawn)              99
 5         Cc1cc(C)c2[nH]cc(C(=O)O)c(=O)c2c1              93
 6  O=C(Nc1ccc(Cl)c(Cl)c1)C1CCC(=O)N1[C@@H](Cc1ccccc1)C(=O)NCCc1ccc(Cl)cc1 (stereo partly drawn)              95
 7  Cc1c2ccc(N(C)c3ccnc(Nc4ccc5c(c4)nc(NC(C)C)n5C)n3)cc2nn1C             100
 8  O=C(Nc1cccc(-c2nn3ncccc3c2-c2ccnc(Nc3ccc(N4CCOCC4)cc3)n2)c1)c1c(F)cccc1F             101
 9  N#Cc1ccc(NC(=Nc2ccccc2Br)N(C2CCCCC2)C2CCCCC2)c(O)c1              99
10  CN1CCCc2cc(NC(=O)c3cc(-c4ccc(Cl)cc4)cs3)ccc2C1             100
11  Cc1ccc(NC(C)C(=O)Nc2ccccc2)cc1S(=O)(=O)N1CCCCCC1 (stereo not drawn)              99
12  COc1cc2nc(NCCN3CCOCC3)n3nc(-c4ccccc4)nc3c2cc1OC              96
13  CCCc1cc(C)ccc1OCCCON1C(NC(=O)OCC)=NC(NC(=O)OCC)=NC1(C)C              95

###

assay details: antimalarial activity against Dd2 strain (AID 2302);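 also: 0% = DMSO untreated growth and 100% = chloroquine plus artemisinin killed control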
recorded conditions: P. falciparum Dd2 in RBCs, LDH growth readout, 72 h; at 2 µM; active compounds read high
Catalogue of growth inhibition readings, one per entry.
attribute measured: growth inhibition (%)

> print(dat)
                                    compound  attribute.measured  value.measured
 1  COc1ccc2nccc([C@@H](O)CN3CCC(NC(=O)/C=C/c4cc(F)cc(Br)c4)CC3)c2c1   growth inhibition              50
 2  c1cc(-c2ccc(CNCCc3ccncc3)cc2)cc(-c2nc3ccccc3[nH]2)c1   growth inhibition              99
 3  Cc1cc(N)c2cc(NC(=O)c3ccc4ccccc4c3)ccc2n1   growth inhibition              99
 4  COc1cc(Cc2cnc(N)nc2N)cc(OCCNC(=O)OCc2ccccc2)c1OC   growth inhibition              -3
 5  O=C(C=Cc1cc([N+](=O)[O-])ccc1Cl)N1CCC(CCN2CCC(c3c[nH]c4ccccc34)CC2)CC1   growth inhibition              26
 6  CC(C)C[C@H](NC(=O)c1cc(-c2ccc(C(C)(C)C)cc2)no1)C(=O)O (tested in a mixture with another compound)   growth inhibition               6
 7  N=C(N)c1cccc(-c2cc(-c3cccc(C(=N)N)c3)on2)c1   growth inhibition              78
 8  Cc1cc(NC(=O)NCCN2CCC(NC(=O)c3cccc(Br)c3)C2)c2ccccc2n1 (centres undefined)   growth inhibition              60
 9  NC(=O)c1cc2nc(Nc3ccc(F)cc3)nc(Nc3ccc(S(N)(=O)=O)cc3)c2[nH]1   growth inhibition              99
10  O=C(N[C@H]1CCN(Cc2ccc(OCCCN3CCCCC3)cc2)C1)c1ccc(Cl)c(Cl)c1   growth inhibition              36
11  c1cc(CN2CCN(c3ccncc3)CC2)cc(-c2ccc(-c3nc4ccccc4[nH]3)s2)c1   growth inhibition             100
12          CCOc1cc(Cc2cnc(N)nc2N)cc(OC)c1OC   growth inhibition               0
13          N=C(N)CCN(Cc1ccccc1)c1ccc(Cl)cc1   growth inhibition              98
14  C=CCOc1ccc(C2C(C(=O)OC)=C(C)NC3=C2C(=O)c2ccccc23)cc1OC (centres undefined)   growth inhibition              65
15  COc1ccc2nc(-c3ccccc3)cc(NCCCNc3cc(-c4ccccc4)nc4ccc(OC)cc34)c2c1   growth inhibition              99
16  CCN(CC)CCN(Cc1ccc(-c2ccc(C(F)(F)F)cc2)cc1)C(=O)Cn1c(CCc2ccc(F)cc2)nc(=O)c2ccccc21   growth inhibition              58
17  Cc1ccc(NC(=O)c2cc(Br)cc(N3CCC(N(C)C)CC3)c2)cc1F   growth inhibition              80
18  COc1cccc(-c2cccc(CNC3CCN(CC4Cn5c(=O)ccc6ccc(F)c4c65)CC3)c2)c1 (centres undefined)   growth inhibition              15
19  O=C(/C=C/c1ccc(Cl)c(Cl)c1)N1CCC(NCc2ccc3[nH]ccc3c2)CC1   growth inhibition               1
20  CC[C@H](C)CNC(=O)c1cncc(-c2ccc(CNC3CCCC3)cc2)c1   growth inhibition               5
21  CCOC(=O)c1[nH]c(-c2ccc(-c3ccccc3)cc2)nc1N   growth inhibition               2
22  O=C(/C=C/c1cc(C(F)(F)F)ccc1F)NCCCCCN1CCC(c2c[nH]c3ccccc23)CC1   growth inhibition               4
23            COc1ccc2c(C)cc(NCCCN(C)C)nc2c1   growth inhibition              19
24  CCCCCC(C)C(C)c1cc(OC(N)=O)c2c(c1)OC(C)(C)C=C2c1ccncc1 (centres undefined)   growth inhibition              -1
